Hello, the source for this data is patent US8202879B2, in case you need it.

# Target Under Test: EGFR (Homo sapiens, UniProt P00533)
# Construct: purchased Carna Biosciences, Inc; host or cells: insect cell expression system
# Sequence (P00533 25-1210): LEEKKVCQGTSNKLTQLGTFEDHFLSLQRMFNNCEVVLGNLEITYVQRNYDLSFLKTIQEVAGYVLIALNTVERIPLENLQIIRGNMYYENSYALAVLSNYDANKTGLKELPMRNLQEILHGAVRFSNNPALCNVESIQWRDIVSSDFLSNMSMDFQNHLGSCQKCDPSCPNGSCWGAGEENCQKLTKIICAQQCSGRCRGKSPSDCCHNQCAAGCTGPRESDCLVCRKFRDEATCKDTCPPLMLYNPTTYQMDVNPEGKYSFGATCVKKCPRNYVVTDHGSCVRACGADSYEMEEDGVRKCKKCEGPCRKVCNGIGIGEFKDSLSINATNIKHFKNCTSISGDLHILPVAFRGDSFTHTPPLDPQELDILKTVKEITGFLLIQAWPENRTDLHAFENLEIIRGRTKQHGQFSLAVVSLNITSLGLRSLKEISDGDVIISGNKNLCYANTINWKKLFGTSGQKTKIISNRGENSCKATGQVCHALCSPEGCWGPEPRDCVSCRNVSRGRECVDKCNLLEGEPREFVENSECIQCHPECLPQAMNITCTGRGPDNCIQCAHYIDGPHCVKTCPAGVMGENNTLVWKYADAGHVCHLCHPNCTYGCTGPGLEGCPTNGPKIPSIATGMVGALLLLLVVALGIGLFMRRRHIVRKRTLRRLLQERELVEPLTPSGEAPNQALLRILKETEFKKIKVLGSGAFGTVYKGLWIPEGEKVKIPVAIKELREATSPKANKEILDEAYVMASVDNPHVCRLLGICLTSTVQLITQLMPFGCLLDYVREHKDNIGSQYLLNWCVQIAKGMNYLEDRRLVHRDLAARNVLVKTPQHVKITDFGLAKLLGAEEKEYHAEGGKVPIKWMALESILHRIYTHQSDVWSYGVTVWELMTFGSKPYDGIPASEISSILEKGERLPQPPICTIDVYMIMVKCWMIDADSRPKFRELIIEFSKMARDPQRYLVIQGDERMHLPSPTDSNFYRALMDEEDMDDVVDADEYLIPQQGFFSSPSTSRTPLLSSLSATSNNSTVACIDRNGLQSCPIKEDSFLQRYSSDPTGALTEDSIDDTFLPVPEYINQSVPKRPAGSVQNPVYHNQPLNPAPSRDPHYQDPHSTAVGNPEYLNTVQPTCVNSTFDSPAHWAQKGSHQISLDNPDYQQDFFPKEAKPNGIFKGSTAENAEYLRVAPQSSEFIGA
# Assay Remarks: Enzyme inhibitory activity on EGFR (time resolution fluorescence, biotinylated poly-Glu-Tyr substrate)
# Assay type: biochemical
# Measurement Conditions: enzyme reaction at room temperature for 60 minutes
# Experimental: Enzyme Inhibitory Activity of Test Compound on EGFR and HER2 EGFR and HER2 purified from an insect cell expression system, and a biotinylated substrate (synthetic peptide of glutamic acid:tyrosine=4:1) were added to a 384-well plate with ATP added thereto, and an enzyme reaction was performed at room temperature. […]
Readout Name: IC50 (nM)

Some compounds with recorded IC50:
CC#CC(=NOCC1CNCCN1)c1ccc2ncnc(Nc3ccc(OCc4ccccn4)c(Cl)c3)c2c1 (stereo not drawn) ... 5
CC#C/C(=N\OC[C@H]1CNC[C@H](C)O1)c1ccc2ncnc(Nc3ccc(OCc4ccccn4)c(Cl)c3)c2c1 ... 8.1
CC#C/C(=N\OCCNCCOC(N)=O)c1ccc2ncnc(Nc3ccc(OCc4ccccn4)c(Cl)c3)c2c1 ... 7.6
CNCCO/N=C(\C#CCOC)c1ccc2ncnc(Nc3ccc4c(cnn4Cc4cccc(F)c4)c3)c2c1 ... 6.3
CC#C/C(=N\OC[C@H]1CCCN1CCO)c1ccc2ncnc(Nc3ccc(OCc4ccccn4)c(Cl)c3)c2c1 ... 16

A = CC#C/C(=N\OCCNC1CCN(S(C)(=O)=O)CC1)c1ccc2ncnc(Nc3ccc(OCc4ccccn4)c(Cl)c3)c2c1
B = CNCCO/N=C(\C#CCOC)c1ccc2ncnc(Nc3ccc(OCc4cccc(F)c4)c(Cl)c3)c2c1
// compare measured IC50, left A , right B , return larger Indicate which entry you chose by stating its label.
B
(B: 24 nM, A: 5.5 nM)

###

# Test system: BT-474
# Assay Remarks: In vitro cell proliferation inhibition, WST assay
# Format: cell-based, human
# Measurement Conditions: Homo sapiens, BT-474, 72 h, BT-474 cells, cultured for 3 days, read-out: BT-474 (nM) proliferation inhibitory activity (IC50 value)
Readout Name: IC50 (nM)

Recorded IC50, per entry:
CC#C/C(=N\OCCNC)c1ccc2ncnc(Nc3ccc(COc4cccc(F)c4)c(Cl)c3)c2c1 ... 16
CC#C/C(=N\OCCN1CCCC1)c1ccc2ncnc(Nc3ccc(OCc4cccc(F)c4)c(Cl)c3)c2c1 ... 26
CC#C/C(=N\OC[C@H]1CNC[C@H](C)O1)c1ccc2ncnc(Nc3ccc(OCc4ccccn4)c(Cl)c3)c2c1 ... 36
CC#C/C(=N\OC[C@H]1CCCN1CCO)c1ccc2ncnc(Nc3ccc(OCc4ccccn4)c(Cl)c3)c2c1 ... 15

A = CC#C/C(=N\OC[C@H]1CN(C)CCN1)c1ccc2ncnc(Nc3ccc(OCc4cccc(F)c4)c(Cl)c3)c2c1
B = CC#CC(=NOCCN1CCOCC1)c1ccc2ncnc(Nc3ccc(OCc4cccc(F)c4)c(Cl)c3)c2c1
C = Fc1cccc(COc2ccc(Nc3ncnc4ccc(C(=NOCCN5CCOCC5)c5ccccc5)cc34)cc2Cl)c1
Rank descending by IC50. Ranked list of labels, please, in the requested order.
C, B, A
(C: 64 nM, B: 27 nM, A: 13 nM)

###

# Target Under Test: HER2 (Homo sapiens, UniProt P04626)
# Construct: purchased Carna Biosciences, Inc; host or cells: insect cell expression system
# Sequence (P04626 23-1255): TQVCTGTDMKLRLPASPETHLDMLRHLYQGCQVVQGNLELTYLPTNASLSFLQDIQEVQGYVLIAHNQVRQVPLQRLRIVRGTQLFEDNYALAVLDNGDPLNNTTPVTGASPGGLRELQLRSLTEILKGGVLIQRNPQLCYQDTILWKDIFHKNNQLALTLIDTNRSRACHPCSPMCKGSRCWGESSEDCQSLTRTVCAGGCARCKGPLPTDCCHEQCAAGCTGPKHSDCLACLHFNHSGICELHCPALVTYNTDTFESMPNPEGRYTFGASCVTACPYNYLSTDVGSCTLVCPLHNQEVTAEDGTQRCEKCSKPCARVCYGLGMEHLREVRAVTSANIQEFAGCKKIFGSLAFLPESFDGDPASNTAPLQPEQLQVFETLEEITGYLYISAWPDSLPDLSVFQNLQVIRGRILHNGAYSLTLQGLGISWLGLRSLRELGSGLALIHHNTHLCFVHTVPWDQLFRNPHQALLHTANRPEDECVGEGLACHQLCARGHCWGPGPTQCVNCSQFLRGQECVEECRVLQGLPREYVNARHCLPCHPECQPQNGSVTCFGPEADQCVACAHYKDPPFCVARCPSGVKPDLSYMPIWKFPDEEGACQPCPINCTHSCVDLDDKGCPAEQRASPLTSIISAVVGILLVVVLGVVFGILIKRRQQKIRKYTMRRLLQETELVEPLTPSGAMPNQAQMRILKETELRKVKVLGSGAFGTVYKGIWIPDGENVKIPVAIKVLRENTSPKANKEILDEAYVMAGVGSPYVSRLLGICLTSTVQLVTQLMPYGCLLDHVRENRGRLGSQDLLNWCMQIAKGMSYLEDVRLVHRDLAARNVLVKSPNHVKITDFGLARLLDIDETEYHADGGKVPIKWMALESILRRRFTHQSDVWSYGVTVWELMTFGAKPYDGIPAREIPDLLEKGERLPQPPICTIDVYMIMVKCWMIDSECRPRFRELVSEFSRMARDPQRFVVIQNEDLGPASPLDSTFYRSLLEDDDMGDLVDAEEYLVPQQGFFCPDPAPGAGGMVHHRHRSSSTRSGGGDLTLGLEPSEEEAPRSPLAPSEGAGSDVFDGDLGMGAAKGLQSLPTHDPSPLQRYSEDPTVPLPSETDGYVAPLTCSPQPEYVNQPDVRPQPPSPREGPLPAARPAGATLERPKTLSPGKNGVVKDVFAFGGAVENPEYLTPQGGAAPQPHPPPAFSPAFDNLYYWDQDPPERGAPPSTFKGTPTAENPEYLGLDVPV
# Assay Remarks: Enzyme inhibitory activity on HER2 (time resolution fluorescence, biotinylated poly-Glu-Tyr substrate)
# Format: biochemical
# Measurement Conditions: HER2 purified from insect cell expression system; ATP solution 290 μM; room temperature, 60 minutes
Readout Name: IC50 (nM)

I = CC#CC(=NOCCNCC)c1ccc2ncnc(Nc3ccc(OCc4cccc(F)c4)c(Cl)c3)c2c1 [VIII-35]
II = CC#C/C(=N\OC[C@H]1CN(CCO)CCN1)c1ccc2ncnc(Nc3ccc(OCc4cccc(F)c4)c(Cl)c3)c2c1 [VIII-112]
Compare reported IC50 values for I and II . Which is lower? Please reply using the label of the selected record.
II
(II: 13 nM, I: 25 nM)

###

# Target Under Test: EGFR (Homo sapiens)
# Construct: purchased Carna Biosciences, Inc; host or cells: insect cell expression system
# Assay Remarks: Enzyme inhibitory activity on EGFR (time resolution fluorescence, biotinylated poly-Glu-Tyr substrate)
# Format: biochemical
# Measurement Conditions: EGFR purified from insect cell expression system; ATP solution 125 μM; room temperature, 60 minutes
Readout Name: IC50 (nM)

CC#C/C(=N\OC[C@@H]1CCCN1CC#N)c1ccc2ncnc(Nc3ccc(OCc4cccc(F)c4)c(Cl)c3)c2c1 ... 275

I = CC#C/C(=N\OCCN1CCC(NS(C)(=O)=O)CC1)c1ccc2ncnc(Nc3ccc(OCc4cccc(F)c4)c(Cl)c3)c2c1
II = CC#C/C(=N\OC[C@H]1CNC[C@@H](C)O1)c1ccc2ncnc(Nc3ccc(OCc4cccc(F)c4)c(Cl)c3)c2c1
III = CC#C/C(=N\OCCNC[C@H]1CCC(=O)N1)c1ccc2ncnc(Nc3ccc(OCc4cccc(F)c4)c(Cl)c3)c2c1
Please list these compounds in decreasing order of IC50. The response must list the labels following the requested ordering.
I, II, III
(I: 208 nM, II: 37 nM, III: 19 nM)

###

# Test system: BT-474
# Assay Remarks: In vitro cell proliferation inhibition, WST assay
# Type: cell-based, human
# Measurement Conditions: Homo sapiens, BT-474, 72 h, BT-474 cells, cultured for 3 days, read-out: BT-474 (nM) proliferation inhibitory activity (IC50 value)
Readout Name: IC50 (nM)

A = CC#CC(=NOCC1CNCCN1)c1ccc2ncnc(Nc3ccc4c(cnn4Cc4cccc(F)c4)c3)c2c1 (stereo not shown)
B = CC#C/C(=N\OC[C@H]1CN(C)CCN1)c1ccc2ncnc(Nc3ccc(OCc4ccccn4)c(Cl)c3)c2c1
Which value of IC50 is numerically greater: that of A or that of B ? // respond with label for picked entry
B

a = CC#C/C(=N\OCCNC1CC1)c1ccc2ncnc(Nc3ccc(OCc4cccc(F)c4)c(Cl)c3)c2c1
b = Fc1cccc(COc2ccc(Nc3ncnc4ccc(/C=N/OCCN5CCOCC5)cc34)cc2Cl)c1
Compare a and b and name the one whose reported IC50 is smaller. To answer, give the label that identifies your chosen option.
a
(a: 12 nM, b: 134 nM)

###

# Target Under Test: HER2 (Homo sapiens, UniProt P04626)
# Construct: purchased Carna Biosciences, Inc; host or cells: insect cell expression system
# Assay Remarks: Enzyme inhibitory activity on HER2 (time resolution fluorescence, biotinylated poly-Glu-Tyr substrate)
# Type: biochemical
# Measurement Conditions: HER2 purified from insect cell expression system; ATP solution 290 μM; room temperature, 60 minutes
Readout Name: IC50 (nM)

CC#C/C(=N\OC[C@H]1CNC[C@@H](C)O1)c1ccc2ncnc(Nc3ccc(OCc4cccc(F)c4)c(Cl)c3)c2c1 ... 25
CC#C/C(=N\OCCN(CC)CCOC)c1ccc2ncnc(Nc3ccc(OCc4cccc(F)c4)c(Cl)c3)c2c1 ... 98

P = CC#C/C(=N\OC[C@H]1NC(=O)O[C@@H]1C)c1ccc2ncnc(Nc3ccc(OCc4cccc(F)c4)c(Cl)c3)c2c1
Q = Fc1cccc(COc2ccc(Nc3ncnc4ccc(/C=N/OCCN5CCCC5)cc34)cc2Cl)c1
IC50 comparison. Which is larger, P or Q ? When you have decided, please share the label of that item.
P

###

# Target Under Test: HER2 (Homo sapiens, UniProt P04626)
# Construct: purchased Carna Biosciences, Inc; host or cells: insect cell expression system
# Assay Remarks: Enzyme inhibitory activity on HER2 (time resolution fluorescence, biotinylated poly-Glu-Tyr substrate)
# Type: biochemical
# Measurement Conditions: HER2 purified from insect cell expression system; ATP solution 290 μM; room temperature, 60 minutes
# Experimental: Enzyme Inhibitory Activity of Test Compound on EGFR and HER2 EGFR and HER2 purified from an insect cell expression system, and a biotinylated substrate (synthetic peptide of glutamic acid:tyrosine=4:1) were added to a 384-well plate with ATP added thereto, and an enzyme reaction was performed at room temperature. […]
Readout Name: IC50 (nM)

The cases that follow already have their IC50 on record.
CC#CC(=NOCCN1CCOCC1)c1ccc2ncnc(Nc3ccc(OCc4cccc(F)c4)c(Cl)c3)c2c1 ... 484
CC#C/C(=N\OCCNC(C)COC)c1ccc2ncnc(Nc3ccc(OCc4cccc(F)c4)c(Cl)c3)c2c1 (stereo not shown) ... 6.3
CC#C/C(=N\OC[C@H]1CCCN1)c1ccc2ncnc(Nc3ccc(OCc4cccc(F)c4)c(Cl)c3)c2c1 ... 33

I = CC#C/C(=N\OCCN1CCC[C@@H]1CO)c1ccc2ncnc(Nc3ccc(OCc4cccc(F)c4)c(Cl)c3)c2c1
II = CC#C/C(=N\OC[C@H]1CNCC(=O)N1)c1ccc2ncnc(Nc3ccc(OCc4cccc(F)c4)c(Cl)c3)c2c1
III = O=S1(=O)CCN(CCON=C(c2ccccc2)c2ccc3ncnc(Nc4ccc(OCc5cccc(F)c5)c(Cl)c4)c3c2)CC1
IV = CC#C/C(=N\OC[C@@H]1CCC(=O)N1)c1ccc2ncnc(Nc3ccc(OCc4cccc(F)c4)c(Cl)c3)c2c1
Please list the entries, largest IC50 first. Field: ranking. Enter the labels in the order requested.
III, IV, II, I
(III: 227 nM, IV: 121 nM, II: 55 nM, I: 28 nM)
